meta.source: ChEMBL document CHEMBL1201862

assayedTarget: Methionyl-tRNA synthetase, putative (Trypanosoma brucei brucei);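 also: Read-out by fluorescence polarization, run as a confirmatory high-throughput counterscreen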;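 also: potency of MetRS inhibitors measured by reduced AMP formation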
Sequence (Q38C91 whole entry): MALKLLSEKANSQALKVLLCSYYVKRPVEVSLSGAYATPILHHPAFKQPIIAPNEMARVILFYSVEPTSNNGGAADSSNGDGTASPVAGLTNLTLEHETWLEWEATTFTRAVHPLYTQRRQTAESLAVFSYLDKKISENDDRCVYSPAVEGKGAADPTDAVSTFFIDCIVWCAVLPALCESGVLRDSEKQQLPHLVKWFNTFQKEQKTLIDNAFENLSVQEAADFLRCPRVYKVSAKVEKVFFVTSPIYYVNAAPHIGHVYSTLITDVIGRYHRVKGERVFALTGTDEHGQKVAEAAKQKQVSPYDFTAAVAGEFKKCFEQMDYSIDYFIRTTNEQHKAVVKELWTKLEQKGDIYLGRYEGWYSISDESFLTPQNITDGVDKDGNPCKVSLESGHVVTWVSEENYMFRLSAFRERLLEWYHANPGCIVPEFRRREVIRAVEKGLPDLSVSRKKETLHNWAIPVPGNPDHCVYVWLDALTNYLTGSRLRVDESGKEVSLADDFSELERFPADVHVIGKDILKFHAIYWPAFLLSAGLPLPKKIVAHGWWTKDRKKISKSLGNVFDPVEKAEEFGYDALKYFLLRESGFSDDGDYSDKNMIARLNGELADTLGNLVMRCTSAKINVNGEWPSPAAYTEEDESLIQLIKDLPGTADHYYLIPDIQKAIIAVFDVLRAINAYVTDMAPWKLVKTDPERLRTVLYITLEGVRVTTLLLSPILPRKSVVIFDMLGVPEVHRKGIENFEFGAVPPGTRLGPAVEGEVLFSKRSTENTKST
Type: functional, Trypanosoma brucei brucei strain 927/4 GUTat10.1
The source made the active and inactive calls.
Result category, one only: y = active, n = inactive

Worked cases, answers included:
[
  {
    "compound": "O=C(NCCc1nc2ccccc2[nH]1)c1ccc(Cl)c([N+](=O)[O-])c1",
    "assayedTarget": "Methionyl-tRNA synthetase, putative (Trypanosoma brucei brucei)",
    "cat": "y"
  },
  {
    "compound": "Clc1ccc2[nH]c3c(NCCCN4CCOCC4)ncnc3c2c1",
    "assayedTarget": "Methionyl-tRNA synthetase, putative (Trypanosoma brucei brucei)",
    "cat": "n"
  },
  {
    "compound": "CCN1C(=O)C(CC(=O)Nc2ccc(OC)cc2)N(CCc2ccc(F)cc2)C1=S (configuration not stated)",
    "assayedTarget": "Methionyl-tRNA synthetase, putative (Trypanosoma brucei brucei)",
    "cat": "n"
  },
  {
    "compound": "Cc1ccc(CNC(=O)CSc2n[nH]c3c4cc(F)ccc4nc-3n2)cc1",
    "assayedTarget": "Methionyl-tRNA synthetase, putative (Trypanosoma brucei brucei)",
    "cat": "n"
  },
  {
    "compound": "CC(C)(C)[C@H]1C=C(C(=O)NCc2nc3ccccc3[nH]2)O[C@@H](OCCCCO)C1",
    "assayedTarget": "Methionyl-tRNA synthetase, putative (Trypanosoma brucei brucei)",
    "cat": "y"
  },
  {
    "compound": "Brc1c[nH]c2nc(SCc3nc4ccccc4[nH]3)nc-2c1",
    "assayedTarget": "Methionyl-tRNA synthetase, putative (Trypanosoma brucei brucei)",
    "cat": "y"
  }
]

Hi, do you know how OC(c1cc(F)cc(Cl)c1)c1nc(-c2ccc(Cl)cc2)c[nH]1 (configuration not stated) came out in this test?
n
